target: Thyrotropin receptor (Homo sapiens) (UniProt P16473); test: qHTS assay to identify small molecule agonists of the thyroid stimulating hormone receptor (TSHR) signaling pathway (AID 1224843); conditions: TSHR-HEK293 cells, cAMP HTRF, agonist mode, 30 min; series mostly up to 92.4 µM; further: nearly all actives have a fitted effect of over 45% in size
Sequence (P16473 whole entry, looked up): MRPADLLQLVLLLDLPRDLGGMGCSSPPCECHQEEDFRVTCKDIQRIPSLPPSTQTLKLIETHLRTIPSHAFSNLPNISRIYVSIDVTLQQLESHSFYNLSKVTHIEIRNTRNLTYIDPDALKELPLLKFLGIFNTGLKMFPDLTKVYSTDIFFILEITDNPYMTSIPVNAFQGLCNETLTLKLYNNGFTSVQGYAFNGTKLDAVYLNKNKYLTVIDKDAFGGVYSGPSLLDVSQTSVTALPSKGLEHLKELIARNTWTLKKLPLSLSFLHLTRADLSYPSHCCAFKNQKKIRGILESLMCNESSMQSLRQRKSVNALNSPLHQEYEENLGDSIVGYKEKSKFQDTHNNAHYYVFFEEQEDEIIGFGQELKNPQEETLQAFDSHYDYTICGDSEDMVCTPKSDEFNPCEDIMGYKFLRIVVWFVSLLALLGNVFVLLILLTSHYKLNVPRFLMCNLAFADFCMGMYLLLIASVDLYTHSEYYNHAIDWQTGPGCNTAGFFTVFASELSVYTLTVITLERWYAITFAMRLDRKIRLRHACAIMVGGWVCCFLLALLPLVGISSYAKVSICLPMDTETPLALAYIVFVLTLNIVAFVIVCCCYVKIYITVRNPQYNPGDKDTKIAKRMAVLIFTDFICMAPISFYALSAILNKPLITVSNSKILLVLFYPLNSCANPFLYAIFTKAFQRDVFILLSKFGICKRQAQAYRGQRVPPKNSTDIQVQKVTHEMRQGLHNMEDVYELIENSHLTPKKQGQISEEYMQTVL
Results filed as inconclusive are left out. Calls of active or inactive are those of the source. The call rests on the fitted dose curve.

{"Molecule": "O=C(O)c1cccc(Cl)n1", "outcome": "inactive"}
{"Molecule": "OCCCS", "outcome": "inactive"}
{"Molecule": "CCNc1nc(NC(C)CC)nc(OC)n1 (centres undefined)", "outcome": "inactive"}
{"Molecule": "COc1cccc(OC)c1O", "outcome": "inactive"}
{"Molecule": "Oc1ccc(-c2ccccc2)c(Cl)c1", "outcome": "inactive"}
{"Molecule": "O=Cc1ccc(F)cc1", "outcome": "inactive"}
{"Molecule": "OCCCCl", "outcome": "inactive"}
{"Molecule": "O=c1cccc[nH]1", "outcome": "inactive"}
{"Molecule": "C1CC(COCC2CO2)CCC1COCC1CO1 (centres undefined)", "outcome": "inactive"}
{"Molecule": "CCC(C)c1cc([N+](=O)[O-])cc([N+](=O)[O-])c1OC(=O)OC(C)C (centres undefined)", "outcome": "inactive"}
{"Molecule": "CCCSS/C(CCO)=C(\\C)N(C=O)Cc1cnc(C)nc1N", "outcome": "inactive"}
{"Molecule": "CC1=CCC(=O)O1", "outcome": "inactive"}
{"Molecule": "CCCCCCCCCCCCCCCC", "outcome": "inactive"}
{"Molecule": "CC(C)=CCCC(C)CCOC(=O)C(C)C (centres undefined)", "outcome": "inactive"}

----------
assay: qHTS assay to identify small molecule agonists of the endoplasmic reticulum stress response signaling pathway - cell viability counter screen (AID 1159517); conditions: ESRE-bla HeLa viability, CellTiter-Glo luminescence, 5 h; series mostly up to 61 µM; further: nearly all actives have a fitted effect of over 50% in size; further: potency means the concentration at half of the fitted maximal effect
Records with an inconclusive call do not appear. Calls of active or inactive are those of the source. Calls come from the whole dose curve.

{"Molecule": "C=C[C@](C)(O)CC[C@@H]1[C@@]2(C)CCCC(C)(C)[C@@H]2CC[C@@]1(C)O", "Potency": "inactive"}
{"Molecule": "Brc1ccccc1-c1ccccc1", "Potency": "41.3 µM (active)"}
{"Molecule": "Cc1c(C)n(Cc2ccccc2)c2ccc(C(=O)OCCN(C)C)cc12", "Potency": "inactive"}
{"Molecule": "C1CC(COCC2CO2)CCC1COCC1CO1 (stereo unspecified)", "Potency": "inactive"}
{"Molecule": "CC(=O)Oc1ccc(C2(c3ccc(OC(C)=O)cc3)C(=O)Nc3ccccc32)cc1", "Potency": "inactive"}
{"Molecule": "[O]=[Zr]", "Potency": "inactive"}

----------
experiment: qHTS assay to identify small molecule antagonists of the peroxisome proliferator-activated receptor delta (PPARd) signaling pathway - cell viability counter screen (AID 743213); conditions: PPARd-bla HEK293H viability, CellTiter-Glo luminescence, 17 h; series mostly up to 62 µM; further: nearly all actives have a fitted effect of over 50% in size
Results filed as inconclusive are left out. Active and inactive are the calls of the source. Calls come from the whole dose curve; as a rule, active = well fitted cell-killing curve with a large enough effect in the repeat runs; inconclusive = weak or mixed curves; inactive = no such curve, though single readings can be large or run the other way.
Labels: Yes (active), No (inactive)

{"Molecule": "CSc1c(Cl)c(Cl)c(Cl)c(Cl)c1Cl", "Class Label": "No"}
{"Molecule": "Cc1oc(-c2ccccc2)nc1CCOc1ccc(C[C@H](Nc2ccccc2C(=O)c2ccccc2)C(=O)O)cc1", "Class Label": "Yes"}
{"Molecule": "CCCCOc1ccc(C(=O)CCN2CCCCC2)cc1", "Class Label": "No"}
{"Molecule": "CC(C)(C)CC(C)(C)c1ccccc1O", "Class Label": "Yes"}
{"Molecule": "Cc1cccc(C)c1NC(=O)CN1CCN(CCCC(c2ccc(F)cc2)c2ccc(F)cc2)CC1", "Class Label": "Yes"}
{"Molecule": "C=CC(=O)OCCOCC(CC)(COCCOC(=O)C=C)COCCOC(=O)C=C", "Class Label": "Yes"}
{"Molecule": "CC(=O)Oc1ccc(C2(c3ccc(OC(C)=O)cc3)C(=O)Nc3ccccc32)cc1", "Class Label": "No"}
{"Molecule": "NC(=O)C(=O)N/N=C/c1ccc([N+](=O)[O-])o1", "Class Label": "No"}
{"Molecule": "CCN(CC)CCOC(=O)C1(C2CCCCC2)CCCCC1", "Class Label": "No"}
{"Molecule": "COC(=O)CC#N", "Class Label": "No"}
{"Molecule": "C[C@@H]1CC[C@H]2C(C)(C)[C@H]3C[C@@]12CC[C@@]3(C)O", "Class Label": "No"}
{"Molecule": "CC(NCCC(c1ccccc1)c1ccccc1)c1ccccc1 (stereo not drawn)", "Class Label": "Yes"}
{"Molecule": "C/C=C/C(=O)Oc1c(CCCCCC(C)C)cc([N+](=O)[O-])cc1[N+](=O)[O-]", "Class Label": "Yes"}

----------
assay: qHTS assay to identify small molecule that activate the aryl hydrocarbon receptor (AhR) signaling pathway - cell viability counter screen (AID 743086); conditions: HepG2-AhR-luc viability, CellTiter-Fluor, 24 h; series mostly up to 70.3 µM; further: nearly all actives have a fitted effect of over 45% in size
Inconclusive results are not listed. Calls of active or inactive are those of the source. The call rests on the fitted dose curve; in most records, active means well fitted cell-killing curve with a large enough effect in the repeat runs; inconclusive means weak or mixed curves, or effect the other way; inactive means flat fitted curve, though single readings scatter.
Outcomes: yes for active, no for inactive

{"Structure": "C=CC(=C)CCC=C(C)C", "Class Label": "no"}
{"Structure": "CC(C)(c1cc(Br)c(OCCO)c(Br)c1)c1cc(Br)c(OCCO)c(Br)c1", "Class Label": "no"}
{"Structure": "CCN=C1C=CC(=C(c2ccc(N(CC)CC)cc2)c2ccc(N(CC)CC)cc2)c2ccccc21", "Class Label": "yes"}
{"Structure": "C[C@@H]1CC[C@H]2C(C)(C)[C@H]3C[C@@]12CC[C@@]3(C)O", "Class Label": "no"}
{"Structure": "CCOC(=O)COc1ccc(C)cc1", "Class Label": "no"}
{"Structure": "CC(C)OC(=O)c1cc(C(=O)OC(C)C)cc([N+](=O)[O-])c1", "Class Label": "no"}

----------
target: Androgen receptor (Homo sapiens) (UniProt P10275); test: qHTS assay to identify small molecule antagonists of the androgen receptor (AR) signaling pathway using the MDA cell line (AID 743042; further: nearly all actives have a fitted effect of over 55% in size); conditions: MDA-kb2 AR-luc, MMTV luciferase, R1881 antagonist, 16 h; series mostly up to 70.3 µM
Sequence (P10275 whole entry, looked up): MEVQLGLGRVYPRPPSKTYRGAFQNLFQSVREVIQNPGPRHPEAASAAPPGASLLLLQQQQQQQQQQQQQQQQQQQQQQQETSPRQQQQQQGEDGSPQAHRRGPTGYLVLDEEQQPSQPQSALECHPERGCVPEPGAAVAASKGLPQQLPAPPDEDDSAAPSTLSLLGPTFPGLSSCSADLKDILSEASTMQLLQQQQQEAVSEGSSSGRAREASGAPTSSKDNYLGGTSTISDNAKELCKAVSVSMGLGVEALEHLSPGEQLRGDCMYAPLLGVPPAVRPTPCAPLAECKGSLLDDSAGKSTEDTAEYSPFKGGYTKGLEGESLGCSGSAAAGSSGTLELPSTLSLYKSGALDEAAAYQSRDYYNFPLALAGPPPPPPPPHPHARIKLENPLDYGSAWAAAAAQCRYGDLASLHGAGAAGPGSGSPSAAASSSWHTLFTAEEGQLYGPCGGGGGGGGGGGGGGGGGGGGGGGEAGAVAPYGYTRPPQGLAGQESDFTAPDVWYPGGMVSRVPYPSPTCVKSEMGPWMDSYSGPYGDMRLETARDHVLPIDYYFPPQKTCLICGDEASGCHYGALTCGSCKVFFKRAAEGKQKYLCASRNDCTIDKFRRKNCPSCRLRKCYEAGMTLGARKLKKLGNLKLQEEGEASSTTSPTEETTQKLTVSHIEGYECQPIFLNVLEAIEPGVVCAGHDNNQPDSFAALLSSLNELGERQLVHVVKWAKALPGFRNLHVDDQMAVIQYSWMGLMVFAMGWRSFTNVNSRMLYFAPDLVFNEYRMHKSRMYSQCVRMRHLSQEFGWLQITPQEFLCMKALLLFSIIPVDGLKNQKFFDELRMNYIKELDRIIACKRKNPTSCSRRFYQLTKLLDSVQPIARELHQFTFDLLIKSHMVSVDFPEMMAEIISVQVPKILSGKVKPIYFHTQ
Inconclusive results are not listed. The source made the active and inactive calls. The call rests on the fitted dose curve; in most records, active means well fitted inhibition curve with a large enough effect in the repeat runs; inconclusive means weak or mixed curves, or effect the other way; inactive means no such curve, though single readings can be large or run the other way.
Classes used: active, inactive

{"Structure": "NC(=O)c1nc(-c2cccc(-c3cc(F)ccc3OCC(F)(F)C(F)(F)F)c2)n[nH]1", "Class Label": "active"}
{"Structure": "NC(=O)c1ccccc1N", "Class Label": "inactive"}
{"Structure": "CC1(C)C(=O)N(Br)C(=O)N1Br", "Class Label": "inactive"}

----------
molecular target: Nuclear receptor subfamily 1 group I member 3 (Homo sapiens) (UniProt Q14994); test: qHTS assay to identify small molecule agonists of the constitutive androstane receptor (CAR) signaling pathway (AID 1224839); conditions: HepG2 hCAR CYP2B6-luciferase, agonist mode, 24 h; series mostly up to 92.4 µM; further: nearly all actives have a fitted effect of over 15% in size;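 on activation: HepG2 cells stably carrying human CAR and a CYP2B6 luciferase reporter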
Sequence (Q14994 whole entry, looked up): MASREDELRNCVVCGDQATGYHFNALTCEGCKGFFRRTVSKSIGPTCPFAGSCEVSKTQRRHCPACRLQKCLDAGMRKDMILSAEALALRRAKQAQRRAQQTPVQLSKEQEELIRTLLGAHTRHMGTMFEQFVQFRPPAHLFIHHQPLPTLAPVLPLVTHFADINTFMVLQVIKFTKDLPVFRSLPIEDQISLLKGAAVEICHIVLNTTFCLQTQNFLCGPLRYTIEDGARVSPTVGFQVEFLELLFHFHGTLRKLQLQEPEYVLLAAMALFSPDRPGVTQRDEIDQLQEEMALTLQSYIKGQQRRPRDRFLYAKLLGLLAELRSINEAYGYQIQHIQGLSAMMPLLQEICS
Records with an inconclusive call do not appear. Calls of active or inactive are those of the source. The call rests on the fitted dose curve; in most records, active means well fitted activation curve with a large enough effect in the repeat runs; inconclusive means weak or mixed curves; inactive means no such curve, though single readings can be large or run the other way.
Labels: active, inactive

{"Compound": "CCCCCCCOC(=O)c1ccc(O)cc1", "Class Label": "inactive"}
{"Compound": "CCCC(CC)CCCCCCCN (centres undefined)", "Class Label": "inactive"}
{"Compound": "COc1cccc(CCc2ccccc2OCC(CN(C)C)OC(=O)CCC(=O)O)c1 (centres undefined)", "Class Label": "inactive"}
{"Compound": "CC(C)c1ccc(O)c(C(C)C)c1", "Class Label": "inactive"}
{"Compound": "CCCCCCCCCCCCCC[n+]1ccccc1", "Class Label": "inactive"}
{"Compound": "Brc1ccccn1", "Class Label": "inactive"}
{"Compound": "C/C=C/CO", "Class Label": "inactive"}
{"Compound": "CO[Si](CCC1CCC2OC2C1)(OC)OC (centres undefined)", "Class Label": "inactive"}
{"Compound": "CCN(CC)c1ccc(N)cc1", "Class Label": "active"}
{"Compound": "Cc1cccc(C)c1NC(=O)CN1CCN(CCCC(c2ccc(F)cc2)c2ccc(F)cc2)CC1", "Class Label": "inactive"}
{"Compound": "CCN(CC)CCSC(=O)C(c1ccccc1)c1ccccc1", "Class Label": "inactive"}
{"Compound": "CCNc1nc(NC(C)CC)nc(OC)n1 (centres undefined)", "Class Label": "inactive"}
{"Compound": "CCOC(=O)[C@@](C)(N)Cc1ccc(O)c(O)c1", "Class Label": "inactive"}
{"Compound": "ClC/C=C\\CCl", "Class Label": "inactive"}

----------
assay: qHTS assay for small molecule agonists of the p53 signaling pathway - cell viability (AID 651633); conditions: p53RE-bla HCT-116 viability, ATP luminescence, 16 h; series mostly up to 83.3 µM; further: nearly all actives have a fitted effect of over 30% in size
Records with an inconclusive call do not appear. The source made the active and inactive calls. Calls come from the whole dose curve.
Outcome codes: active, inactive

{"Molecule": "NCCCC(O)(P(=O)(O)O)P(=O)(O)O", "Class Label": "inactive"}
{"Molecule": "c1cc2c3c(c1)ccc1cccc(c13)C2", "Class Label": "inactive"}
{"Molecule": "C[Si](C)(C)Cl", "Class Label": "inactive"}
{"Molecule": "O=C(O)CC(=O)O", "Class Label": "inactive"}
{"Molecule": "Cc1ccc2ccc3cccc4ccc1c2c34", "Class Label": "inactive"}
{"Molecule": "C1CC(COCC2CO2)CCC1COCC1CO1 (stereo not drawn)", "Class Label": "inactive"}
{"Molecule": "Cc1cc(Nc2ccc(O)cc2)ccc1N", "Class Label": "inactive"}
{"Molecule": "C(=C/c1ccccc1)/c1ccccc1", "Class Label": "inactive"}
{"Molecule": "NCCCCCCNCCCCCCN", "Class Label": "inactive"}
{"Molecule": "SCCCCCCCCS", "Class Label": "inactive"}
{"Molecule": "Cc1cc2c(C(C)C)c(O)c(O)c(C=O)c2c(O)c1-c1c(C)cc2c(C(C)C)c(O)c(O)c(C=O)c2c1O", "Class Label": "active"}
{"Molecule": "CCCCOC(=O)C(C)CC (stereo not drawn)", "Class Label": "inactive"}
{"Molecule": "Cc1cccc(C)c1NC(=O)CN1CCN(CCCC(c2ccc(F)cc2)c2ccc(F)cc2)CC1", "Class Label": "inactive"}
{"Molecule": "C/C=C/C=N/NC(=O)c1ccncc1", "Class Label": "inactive"}
{"Molecule": "O=C(O)CCCCCCC(=O)O", "Class Label": "inactive"}
{"Molecule": "O=C1C=CC(=O)N1c1ccccc1", "Class Label": "active"}
{"Molecule": "CCCCCCCC/C=C\\CCCCCCCC(=O)OCCOC(=O)CCCCCCC/C=C\\CCCCCCCC", "Class Label": "inactive"}
{"Molecule": "O[C@@H](c1cc(C(F)(F)F)nc2c(C(F)(F)F)cccc12)[C@H]1CCCCN1", "Class Label": "active"}
{"Molecule": "CN(C)c1ccc(N=NS(=O)(=O)O)cc1", "Class Label": "inactive"}
{"Molecule": "O=C1OC(=O)c2cccc3cccc1c23", "Class Label": "inactive"}
{"Molecule": "O=C(Nc1ccc(Cl)cc1)Nc1ccc(Cl)c(C(F)(F)F)c1", "Class Label": "active"}
{"Molecule": "COC(=O)CC(C)CCC=C(C)C (stereo not drawn)", "Class Label": "inactive"}
{"Molecule": "CCCCCCCC/C=C/CCCOC(C)=O", "Class Label": "inactive"}
{"Molecule": "O=S(=O)(O)CCCN1CCOCC1", "Class Label": "inactive"}
{"Molecule": "O=C1NC2CCCCN2C12CCN(CCCN1c3ccccc3CCc3ccc(Cl)cc31)CC2 (stereo not drawn)", "Class Label": "inactive"}
{"Molecule": "O=Cc1ccc(F)cc1", "Class Label": "inactive"}
{"Molecule": "CCN(CC)CCSC(=O)C(c1ccccc1)c1ccccc1", "Class Label": "inactive"}
{"Molecule": "CC(CN(C)C)CN1c2ccccc2CCc2ccccc21 (stereo not drawn)", "Class Label": "inactive"}
{"Molecule": "COc1ccc2sc(C(=O)Nc3nnn[nH]3)c(OC(C)C)c2c1", "Class Label": "active"}
{"Molecule": "O=C1OC(OC(=O)c2cccnc2Nc2cccc(C(F)(F)F)c2)c2ccccc21 (stereo not drawn)", "Class Label": "inactive"}
{"Molecule": "Cc1cn[nH]c1", "Class Label": "inactive"}
{"Molecule": "Cc1c(C)n(Cc2ccccc2)c2ccc(C(=O)OCCN(C)C)cc12", "Class Label": "inactive"}
{"Molecule": "CCCCCCCCCC(=O)N(C)C", "Class Label": "inactive"}
{"Molecule": "CC(C)N=C(N)/N=C(\\N)Nc1ccc(Cl)cc1", "Class Label": "inactive"}
{"Molecule": "CCCCCCCCCCCCN(CCO)CCO", "Class Label": "active"}
{"Molecule": "CCCCCCC(C)Nc1ccc(Nc2ccccc2)cc1 (stereo not drawn)", "Class Label": "active"}
{"Molecule": "CCOC(=O)N1CCC(=C2c3ccc(Cl)cc3CCc3cccnc32)CC1", "Class Label": "active"}
{"Molecule": "CCCCCCCC/C=C\\CCCCCCCC(=O)N(C)CC(=O)O", "Class Label": "active"}
{"Molecule": "CCCCCCCCCCCCCCNCCO", "Class Label": "inactive"}
{"Molecule": "CCOC(=O)COc1ccc(C)cc1", "Class Label": "inactive"}
{"Molecule": "CCNc1nc(NC(C)CC)nc(OC)n1 (stereo not drawn)", "Class Label": "inactive"}
{"Molecule": "Cc1c(C(=O)O)cccc1[N+](=O)[O-]", "Class Label": "inactive"}
{"Molecule": "C=CC(=O)OCC(O)COc1ccccc1 (stereo not drawn)", "Class Label": "active"}
{"Molecule": "NC(=O)c1ccccc1N", "Class Label": "inactive"}
{"Molecule": "C=CCCCCCCC=C", "Class Label": "inactive"}
{"Molecule": "ClC/C=C\\CCl", "Class Label": "inactive"}
{"Molecule": "O=C(c1ccccc1)c1cc(Cl)ccc1O", "Class Label": "inactive"}
{"Molecule": "Oc1c(Br)cc(Br)c2cccnc12", "Class Label": "active"}
{"Molecule": "CCCCC(CC)COC(=O)c1ccc(O)cc1 (stereo not drawn)", "Class Label": "active"}
{"Molecule": "Cc1cccc(Br)c1", "Class Label": "inactive"}
{"Molecule": "CCc1cccc(C)c1", "Class Label": "inactive"}
{"Molecule": "O=C1NCN(c2ccccc2)C12CCN(CCCC(c1ccc(F)cc1)c1ccc(F)cc1)CC2", "Class Label": "active"}
{"Molecule": "Cc1occc1SSc1ccoc1C", "Class Label": "inactive"}
